# ASSAY_METHOD_TEXT: folding stability dG unfold from trypsin proteolysis; higher = more stable
READOUT_KIND: folding stability dG unfold (kcal/mol)
Give the number; kcal/mol is assumed, so skip it.

Below, 3 sequences whose answers are already recorded.
SEQUENCE_STRING: SAGGSAGGGRAEILVEPVEPEPRARVVIRLEGSGRLVVFPVEEPLEPEHVEEAVEAAIKALEENSAGGSAGG [r6_330_TrMRF]
folding stability dG unfold (kcal/mol): -0.26
//
SEQUENCE_STRING: SAGGSAMREIRVGDTVVRILSIDPSTGEVHIAVREDLPPETIEAARRALEEAGLRFRVEPVPEELLSAGGSA [r15_570_TrMRF]
folding stability dG unfold (kcal/mol): 1.73
//
SEQUENCE_STRING: SAGGSAGGSKKKKVIEIKISEEELKKLGLTKEEIAKKLAEKFPNIKKNVRIEKNKDGTLKIYVSAGGSAGGS [r12_50_TrROS_Hall]
folding stability dG unfold (kcal/mol): 1.22

In the following, a different sequence is considered.
Task: Entry under review: SAGGSAGGKLKKFKIKEIKIEKNKETNTYTVTITLENGEKLTITAKSKEDAEKALRKLKEAGLLSAGGSAGG [r6_65_TrROS_Hall] . Reported folding stability dG unfold?
Result: 2.81

###

# ASSAY_METHOD_TEXT: folding stability dG unfold from trypsin proteolysis; higher = more stable
READOUT_KIND: folding stability dG unfold (kcal/mol)
Give the number; kcal/mol is assumed, so skip it.

Below, 10 sequences whose answers are already recorded.
SEQUENCE_STRING: SAGGSAGGSAGTETKVLFIDENFESVEEAFQALRDLLPDNYKIEPLGVFPAKNKVVVLVTNPSAGGSAGGSA [r18_429_TrMRF]
OBSERVED_MEASUREMENT: 0.646
--
SEQUENCE_STRING: SAGGSAGGSASSPSSPVKVTVTVTAPDSLVKTITVTKTPEGVIDLVLPSDIPSDYKITIIESAGGSAGGSAG [r3_44_JUSTAS]
OBSERVED_MEASUREMENT: 0.0537
--
SEQUENCE_STRING: SAGGSAGGSAAITIPVPPGETVTIKIEIEMTVPPNQRNPDGQRMKPGQKVRMEVTFTFRVDGSAGGSAGGSA [r18_450_TrROS]
OBSERVED_MEASUREMENT: 3
--
SEQUENCE_STRING: SAGGSAGGSAGPRIVAFNVPNGKTIPLFAPDGWMIRINIERDPKDGEHKMETEYVPADDISAGGSAGGSAGG [r17_287_TrROS]
OBSERVED_MEASUREMENT: -0.424
--
SEQUENCE_STRING: SAGWYIKVEVYYGGKKHTFMIPRKQAKELRKKYPPGDEIPIPFNGRDVEIRVQVIPPPPPSPEDAADNKSAG [r5_669_TrROS]
OBSERVED_MEASUREMENT: 1.83
--
SEQUENCE_STRING: SAGGSAGGSAGGKPKTVKIIRDKKTNRLLIERDGKVYEFDVDNVEVREVTLEDLKEEELSAGGSAGGSAGGS [r10_512_TrROS_Hall]
OBSERVED_MEASUREMENT: 0.576
--
SEQUENCE_STRING: SAGGSAGGSAGGSGPVPVTIKSVTTYPEKDVYKVETVPATPEPITITLSPEELSDVVILSAGGSAGGSAGGS [r4_51_JUSTAS]
OBSERVED_MEASUREMENT: -1.69
--
SEQUENCE_STRING: SAGGSAGGSAEDVVLKVKIEIPSSDGTLLEIDEAIYNPKPGTLHFKIRSPDGSEFEIEIPLDSAGGSAGGSA [r18_370_TrMRF]
OBSERVED_MEASUREMENT: 0.725
--
SEQUENCE_STRING: SAMKTEVIEFENFTIVVEELPDGSKKIIILFENPEKAKEALEKNPWIKEFIAEAEKEGYDVELAVVEPESAG [r14_873_TrMRF]
OBSERVED_MEASUREMENT: 3.21
--
SEQUENCE_STRING: SAGGSAGGSAGSMTLLATETFPETGKTVKYYKEGDTIYRVDYSDPKNPVVTELSPSDPLKSAGGSAGGSAGG [r17_145_JUSTAS]
OBSERVED_MEASUREMENT: 1.68

Task: Entry under review: SAGGSQLDEYRKKVEEAIEKAKAEGKPVEKIELTGSEEVAKEVREWLEEQGIPKSVKVTVTPPAINESAGGS [r16_164_JUSTAS] . Reported folding stability dG unfold?
Result: 0.433

Task: Entry under review: SAGGSAGGSAGGGPSSMVTVETKEELLTLPNGEKLIKTTTTTKTPTATTTTTTVLPAELLSAGGSAGGSAGG [r7_682_JUSTAS] . Reported folding stability dG unfold?
Result: 0.0664

Task: Entry under review: SMNIHIPILTRPDVDEETIEEEVEALAAELAEKLGLPEGVEVEIEPEPLPEDGVVYHVTLRVGDVEFKGESA [r9_776_TrMRF] . Reported folding stability dG unfold?
Result: 0.168

Task: Entry under review: SGLTNLRVEAELVPPGVLRVTFTEGGKPVYELTFTVVVPAPPVVEPVLLPNGVPALVVYDPATGKPVVYPSA [r9_343_TrMRF] . Reported folding stability dG unfold?
Result: 2.17

Task: Entry under review: SAGGSAGGSNWVEIDIPHDDGRDIKITMWPDGYMQIEYPNGKPVYEIPVPPNMSIDEIAERILSAGGSAGGS [r12_990_TrROS] . Reported folding stability dG unfold?
Result: 0.641

Task: Entry under review: SAGGSAGGSAPVAYTITITYRDPDGSTRTLTLTFPNLTPEEAKEAAEALPIPASVVSIDITKASAGGSAGGS [r12_886_JUSTAS] . Reported folding stability dG unfold?
Result: 2.24

Task: Entry under review: SAGGMVEREFTLDGTRITITYVPSEGVILATFPDRTVTVPVPESLKDKSPEEVIELAKEFAKEYLESSAGGS [r16_215_JUSTAS] . Reported folding stability dG unfold?
Result: 4.14

Task: Entry under review: SAGGSAGGSKPIKTKATIPLPNGKTITADVEIVVLPDGNILLRVPSGKVILVPPNYPVTFEDASAGGSAGGS [r20_227_TrMRF] . Reported folding stability dG unfold?
Result: 1.71

Task: Entry under review: SAGGSAGPDPKNKKIKVKVETFYLEDFGLKVEKIYIEGTGKPLLVFYFPDGSKLIINEDGTVKLIESAGGSA [r15_617_TrMRF] . Reported folding stability dG unfold?
Result: 1.79

Task: Entry under review: SAGGSAGGSAGGMVITVPKENLKELIDALRKEGKARIVSVEEKDGLVTITVELEDEELESAGGSAGGSAGGS [r10_695_TrROS_Hall] . Reported folding stability dG unfold?
Result: 3.24

Task: Entry under review: SAGGSAFKLTFKNMKIESKMPNPDGQKMIRIEWPDGLSIMIHPPNAIWIMPKDDPEMPPGDMVPIDSAGGSA [r15_692_TrROS] . Reported folding stability dG unfold?
Result: 0.695

Task: Entry under review: SAGGSAGGIKEILKEARENPENAESVTIRIPMEVPVTRYDPDNGEPETHPHPVPGEITIPPDDLSAGGSAGG [r6_560_TrROS] . Reported folding stability dG unfold?
Result: 0.435

Task: Entry under review: SAGGSAGGKKKKKPPKKKYFYVEIEIELTPEEIEKLKELFPDVKVEVEEKDGKLRVRITVRVKLSAGGSAGG [r6_685_TrROS_Hall] . Reported folding stability dG unfold?
Result: 2.79

Task: Entry under review: SAGGSAGGSPMPVIEEVPLNPVEEKPDPSSNTLTVKYPDGTYRILTKNPDGSYSFKVLPSSSISAGGSAGGS [r12_351_JUSTAS] . Reported folding stability dG unfold?
Result: 1.67

Task: Entry under review: SAGGSAGGSAGGSMIVLRMSADEIKKLLPPGAKIKKIEYDEETDEVYVIIEFDKDGKIISAGGSAGGSAGGS [r4_435_TrROS_Hall] . Reported folding stability dG unfold?
Result: 1.53

Task: Entry under review: SAGEERTVRVEIEIVVKTEEELEALKALFPNAEATRNEDGLLTLRLTIEVRVAPPVVVRDPETNELLELSAG [r5_129_TrROS_Hall] . Reported folding stability dG unfold?
Result: 2.56

Task: Entry under review: MKPLTPEEVKKIAEGIAKEIEKAAKALGIDKVEVPVKIEKLPDGGYKIIIEVKLYKDDKKIGTFPIEIYIDS [r1_364_TrMRF] . Reported folding stability dG unfold?
Result: 3.51

###

# ASSAY_METHOD_TEXT: folding stability dG unfold from trypsin proteolysis; higher = more stable
READOUT_KIND: folding stability dG unfold (kcal/mol)
Give the number; kcal/mol is assumed, so skip it.

Task: Entry under review: SAGGSAGGSAGGVKYLTLTLPDGTVIKVPVDEPVEIRGEDGRPVEIVEAKVTEGPPGLGSAGGSAGGSAGGS [r10_20_JUSTAS] . Reported folding stability dG unfold?
Result: 0.963

Task: Entry under review: SAGMPVITTTEELPGGLTVTTTTYPPGDTTTTVTSPEGNVTTTTTTTTPTPTPTTTTTTTTTTTPVPPASAG [r5_944_JUSTAS] . Reported folding stability dG unfold?
Result: 1.56

Task: Entry under review: SAGGSKWIPVSIWFPKGMTPEKVEEIARELVEAGYRIENIEVEREPDPNGREWYRVDITFRPPGDLSAGGSA [r2_442_TrROS] . Reported folding stability dG unfold?
Result: 2.71

Task: Entry under review: SAGGSAGGSTPPLTTETEAVIEIEGGLYSVKVTQLPPDETLMTIPANGMIIRETPDKIEIRPESAGGSAGGS [r12_737_JUSTAS] . Reported folding stability dG unfold?
Result: -0.374

Task: Entry under review: SAGGSAGGSAGGMVIRLEDGRTLVFETREEAEEAAKALAEELGLKEVKVEIVEVPLEELPSAGGSAGGSAGG [r7_839_TrROS_Hall] . Reported folding stability dG unfold?
Result: 2.11

Task: Entry under review: SASSFPPGSTATLTVRVTDPAGTATTTLTIPLSVDPSTGKAVSLEEVYEILKELGVDPANVTITSLTVSSAG [r14_93_JUSTAS] . Reported folding stability dG unfold?
Result: 3.07

Task: Entry under review: SAGGSFHDLAKELAKKRGLKKVSINMHPEDNSMNINIQNPEKGRPVQGNIPMEDMTPETVLDQIENILESAG [r5_896_TrROS] . Reported folding stability dG unfold?
Result: -1.04

Task: Entry under review: SAGGMLPGEPEVELVLEIEIDVPPGEISAEELERLLRELFPGAEVVDVRVEEEGGKLRIEVVIRLPPSAGGS [r8_202_TrROS_Hall] . Reported folding stability dG unfold?
Result: 3.42
